- SUBJECT OF TEST: human Lpd (Homo sapiens, UniProt P09622)
- Sequence (P09622 36-509): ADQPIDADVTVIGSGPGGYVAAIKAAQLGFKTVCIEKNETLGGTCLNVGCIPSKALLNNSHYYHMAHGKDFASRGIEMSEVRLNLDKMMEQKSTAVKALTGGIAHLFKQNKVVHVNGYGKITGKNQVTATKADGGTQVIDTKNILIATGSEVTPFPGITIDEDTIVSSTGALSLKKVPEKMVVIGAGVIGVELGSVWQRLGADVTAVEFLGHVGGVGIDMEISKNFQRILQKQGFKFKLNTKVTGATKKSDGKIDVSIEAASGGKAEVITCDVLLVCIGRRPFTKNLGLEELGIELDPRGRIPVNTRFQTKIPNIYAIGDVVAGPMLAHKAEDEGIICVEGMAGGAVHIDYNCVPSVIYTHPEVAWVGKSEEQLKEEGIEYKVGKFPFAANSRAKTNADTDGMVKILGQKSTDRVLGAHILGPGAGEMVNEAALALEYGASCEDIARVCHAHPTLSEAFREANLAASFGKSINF
- ASSAY INFO: Human Lpd DTNB assay
- Assay type: biochemical
ASSAY ENDPOINT: IC50

COc1ccc(C(=O)N2CCC3(CC2)C(=O)N(CC(=O)NCCc2ccc(Cl)cc2Cl)CN3c2ccccc2)c(OC)c1	> 100 µM

###

- SUBJECT OF TEST: Mtb Lpd (Mycobacterium tuberculosis, UniProt P9WHH9)
- Sequence (P9WHH9 1-464): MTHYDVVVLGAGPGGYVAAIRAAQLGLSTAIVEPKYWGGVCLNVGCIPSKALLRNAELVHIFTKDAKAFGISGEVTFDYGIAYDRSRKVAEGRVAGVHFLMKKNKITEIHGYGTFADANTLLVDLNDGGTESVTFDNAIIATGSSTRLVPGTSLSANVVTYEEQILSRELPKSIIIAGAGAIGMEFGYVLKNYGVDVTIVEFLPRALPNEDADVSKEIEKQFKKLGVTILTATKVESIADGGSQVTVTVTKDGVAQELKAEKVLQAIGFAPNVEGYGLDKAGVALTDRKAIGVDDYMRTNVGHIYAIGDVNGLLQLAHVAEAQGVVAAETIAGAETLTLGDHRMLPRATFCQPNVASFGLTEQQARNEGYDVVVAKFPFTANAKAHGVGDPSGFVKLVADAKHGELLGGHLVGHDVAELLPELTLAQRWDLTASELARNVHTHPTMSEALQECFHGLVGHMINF
- STATED CONDITIONS: read-out: IC50 Mtb Lpd NADH-lipoamide; NADH-lipoamide assay
ASSAY ENDPOINT: IC50 (nM)

COc1ccc(C(=O)N2CCC3(CC2)C(=O)N(CC(=O)NCc2cccc(C(F)(F)F)c2)CN3c2ccccc2)c(OC)c1 [compound 4]	2000

Where these numbers come from: paper PMC2827632
